System: Plasmodium berghei
Experiment: Screen against P. berghei liver stage (PbLuc), transformed with Luciferase, at 10uM
Assay type: functional, HepG2
Details: tested at 10 uM
About 8,600 (12%) of roughly 69,000 compounds showed an effect of 50% or more. The sample as a whole holds a higher share of strong results than the screen did.
Item-by-item account of INHIBITION
Value expressed in %; do not type the unit.

Example entries begin here.
Recall the reported INHIBITION of Cc1nc(CN2CCCN(CCOc3cccc(C#N)c3)CC2)no1 when tested on Plasmodium berghei.
20.1

Recall the reported INHIBITION of CCCc1nnc2sc(CC3CN(Cc4ccccc4)CCO3)nn12 (stereo not given) when tested on Plasmodium berghei.
59.2

Recall the reported INHIBITION of Cc1ncc2c(n1)CN(C=C1NN=C(c3occc3C)O1)CC2 when tested on Plasmodium berghei.
47.6

Recall the reported INHIBITION of Cc1ccccc1CNC(=O)c1ccccc1-n1cc(CN)cn1 when tested on Plasmodium berghei.
20.8

Recall the reported INHIBITION of O=C(NCc1ccc2c(c1)CCCO2)C1CNCCO1 (stereo not given) when tested on Plasmodium berghei.
12.9

Others:
Recall the reported INHIBITION of CCn1cc(S(=O)(=O)N(CCc2ccccc2)Cc2ccn(C)n2)cn1 when tested on Plasmodium berghei.
21.425

Recall the reported INHIBITION of CC(C)c1noc(CN2CCCN(Cc3cccs3)CC2)n1 when tested on Plasmodium berghei.
11.6

Recall the reported INHIBITION of CCn1c(C2CCCNC2)nn(CCn2cncn2)c1=O (stereo not given) when tested on Plasmodium berghei.
-7.13

Recall the reported INHIBITION of Cn1cccc1C(=O)N1CCO[C@@H]2CN(Cc3ccco3)C[C@@H]2C1 when tested on Plasmodium berghei.
15.8

====

Item-by-item account of INHIBITION
Test system: Plasmodium berghei
Assay: Screen against P. berghei liver stage (PbLuc), transformed with Luciferase, at 10uM
Assay type: functional, HepG2
Details: tested at 10 uM
The whole screen tested about 69,000 compounds, of which about 8,600 (12%) showed an effect of 50% or more. Many of the other results were omitted from the sample, so strong results are more common in it than they were.
Value expressed in %; do not type the unit.

Example entries begin here.
Report INHIBITION, nothing else, for this compound: NC(=O)C1CN(C(=O)Nc2cc(Cl)cc(Cl)c2)CCO1 (stereo not drawn)
88.4

Report INHIBITION, nothing else, for this compound: COCC1CN(C(=O)Nc2cc(Cl)cc(Cl)c2)CCO1 (stereo not drawn)
-42.9

Report INHIBITION, nothing else, for this compound: CCN1CC2(CC1=O)CN(Cc1cnn(C)c1)CCN(C(=O)N(C)C)C2 (stereo not drawn)
20.9

Report INHIBITION, nothing else, for this compound: CC(=O)N1CCc2nnc(C3CCCCN3CC3CCCCC3)n2CC1 (stereo not drawn)
42.4

Report INHIBITION, nothing else, for this compound: CC(c1ccccn1)N(C)Cc1cccc(C(=O)Nc2nccn2C)c1 (stereo not drawn)
9.57

Others:
Report INHIBITION, nothing else, for this compound: CCCc1n[nH]c(C2CN(CCC(F)(F)F)CCO2)n1 (stereo not drawn)
29.7

Report INHIBITION, nothing else, for this compound: CC(C)CCCNC(=O)Nc1ccc(Cl)c(C(N)=O)c1
-57.4

Report INHIBITION, nothing else, for this compound: N#Cc1c(N2CCCCC2)nsc1-c1cccnc1
-0.621

Report INHIBITION, nothing else, for this compound: COc1ccc(OC)c(C2CCN(Cc3nc(C)n4ccccc34)C2)c1 (stereo not drawn)
45.8

Report INHIBITION, nothing else, for this compound: O=C(N1CCCC1)N1CCC2(CC1)COCCN(Cc1cccnc1)C2
41.6

Report INHIBITION, nothing else, for this compound: Cc1ccc(NC(=O)N2CCOC(C(N)=O)C2)cc1C(F)(F)F (stereo not drawn)
-14.3

Report INHIBITION, nothing else, for this compound: Cc1nn(C)c(C)c1C1CCCN1Cc1cccc(C(N)=O)c1 (stereo not drawn)
5.37

Report INHIBITION, nothing else, for this compound: O=C(NCC1CCN(Cc2cc3ccccc3[nH]2)C1)c1ccsc1 (stereo not drawn)
40.8

Report INHIBITION, nothing else, for this compound: Cc1csc(N2CCN(Cc3cnc4c(c3)c(C)nn4C)CC2)n1
24

Report INHIBITION, nothing else, for this compound: COc1cc(-c2noc(C(CC(C)C)N3CCCCC3=O)n2)ccn1 (stereo not drawn)
34.1

Report INHIBITION, nothing else, for this compound: CC(C)c1noc(CCCC(=O)NCC2CCS(=O)(=O)C2)n1 (stereo not drawn)
21.6

Report INHIBITION, nothing else, for this compound: Cc1nc2c(c(=O)[nH]1)CN(C(=O)CCC1CCCN(C)C1)C2 (stereo not drawn)
48.2

Report INHIBITION, nothing else, for this compound: c1cnnc(N[C@@H]2CC[C@@H]3CN(Cc4ccc5[nH]ccc5c4)C[C@@H]32)c1
27.2

Report INHIBITION, nothing else, for this compound: Cc1cccnc1C(Nc1nccc(C2CCCC2)n1)C1CC1 (stereo not drawn)
0.164

Report INHIBITION, nothing else, for this compound: Cc1cc(C)c(CNC(=O)NCC2Cc3ccccc32)c(=O)[nH]1 (stereo not drawn)
0.342

Report INHIBITION, nothing else, for this compound: NC(=O)C1CN(C(=O)Nc2ccccc2N2CCCCCC2)CCO1 (stereo not drawn)
-22.7

Report INHIBITION, nothing else, for this compound: COc1ccccc1OC1CCN(c2nc(N)nc3[nH]cnc23)CC1
-18.8

Report INHIBITION, nothing else, for this compound: CCN1CCN(c2nsc(-c3cccnc3)c2C#N)CC1
36.6

Report INHIBITION, nothing else, for this compound: Cn1ccc(C(=O)N2CCC(c3cc(CCO)n(C)n3)C2)n1 (stereo not drawn)
-3.94

Report INHIBITION, nothing else, for this compound: Cc1cc(C)c(CNC(=O)c2ccc3c(c2)CCC3)c(=O)[nH]1
50.3

Report INHIBITION, nothing else, for this compound: COc1ccc(OC)c(C2CCN(c3ccc4cc[nH]c4n3)C2)c1 (stereo not drawn)
79.2

Report INHIBITION, nothing else, for this compound: Cc1ccc(-c2ccnc(NC(c3ncccc3C)C3CC3)n2)c(C)n1 (stereo not drawn)
51.2
